Origin of values: PubChem BioAssay

# method summary: CREB reporter modulators under forskolin, primary screen, cell-based, PC12, CRE-LacZ reporter, forskolin-stimulated (AID 1146);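 also: PC12 cells with 6xCRE LacZ reporter stimulated by forskolin 10 µM; beta-galactosidase reporter signal reflecting CREB driven transcription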
# condition set: luminescence, 4.5 h, higher = more signal, called active from +8 up or from −8 down
z-score below 0.2 gives false (0); z-score at or above it gives true (1).

molecule | assigned label
COC(=O)[C@@]1(Cc2ccc(OC)cc2)[C@H]2c3cc(C(=O)N(C)C)n(Cc4nc5ccccc5[nH]4)c3C[C@H]2CN1C(=O)c1ccccc1 | false (0)
O=C1OCC=C[C@H]2OC34C=CCN(Cn5nnc6ccccc65)C(=O)[C@H]3N(CCCCCCO)C(=O)[C@@H]4[C@@H]12 (stereo not given in full) | false (0)
Cc1ccc(S[C@]2(C(=O)NC(C)C)CC(=O)N(C3Cc4ccccc4C3)[C@@H]2c2ccc(CO)cc2I)cc1 | true (1)
[N-]=[N+]=NCc1ccccc1[C@H]1OC(c2ccc(OCCCO)cc2)=N[C@@]1(CCS(=O)(=O)c1ccccc1)C(N)=O | true (1)
CC(C)NC(=O)[C@@]1(C)c2ccccc2C(=O)N(C(C)C)[C@H]1c1ccc(CO)cc1 | true (1)
C=C[C@H](COC(C)=O)NS(=O)(=O)c1ccc(Br)cc1 | true (1)
C=C(COC)/C(=C/C[C@@H](OC(=O)c1ccncc1)c1cccc(OCCO)c1)c1cnc2ccccc2c1 | true (1)
COCCOC(=O)N1C(=O)[C@@]2(c3cc(C#Cc4ccc(OC)cc4)ccc31)[C@H](C(=O)N1CCCCCCC1)[C@H]1C(=O)O[C@H](c3ccccc3)[C@H](c3ccccc3)N1[C@@H]2c1ccc(O)cc1 | false (0)
CN1C(=O)C2C(C1=O)C1C=C(c3ccc(CO)cc3)C2C(c2cccs2)N1Cc1cccc(OC(F)(F)F)c1 (stereo not given) | false (0)
COc1ccc(NN2C(C(O)c3ccco3)C=CC3C(=O)N(C4CCCCC4)C(=O)C32)cc1 (stereo not given) | true (1)
COc1ccc([Si](C)(C)[C@H]2[C@H](CCn3cc(CCO)nn3)O[C@@]3(C(=O)N(Cc4ccc(N5C(=O)c6cccc7cccc5c67)cc4)c4ccccc43)[C@@H]2C)cc1 | false (0)
COc1ccc(C(O)C2C=CC3C(=O)N(C)C(=O)C3N2N2CCCCC2)cc1 (stereo not given) | false (0)
CCC[C@@H]1C[C@@]1(CCC)[C@@H](NP(=O)(c1ccccc1)c1ccccc1)c1ccc(Cl)cc1 | false (0)
CN(C)C(=O)[C@@]1(Cc2ccccc2N=[N+]=[N-])COC(c2ccc(OCCCO)cc2)=N1 | true (1)
